Read-out: sulfotransferase 2A1 (SULT2A1), SULT2A1 (gene 6822)
Experiment: LTEA_HepaRG_SULT2A1: Life Technologies and Expression Analysis (LTEA) Assay for sulfotransferase 2A1 (SULT2A1) using HepaRG (AID 2283531)
Recorded conditions: mRNA level, 48 h; actives raise or lower the signal
Activity calls are given as the source filed them. Rule for the calls: active = hit-call score of the fitted dose curve at least 0.9, where 1 is the maximum; inactive = score below 0.9.

Smiles notation	outcome
CC(C)COC(=O)CCCCC(=O)OCC(C)C	inactive
C=CCc1ccc(OC)c(OC)c1	inactive
CCOCCOCCO	inactive
NC(=Nc1ccccc1)Nc1ccccc1	inactive
CC(C)c1cccc(C(C)C)c1NC(=O)NS(=O)(=O)c1cc(C(C)(C)O)co1	inactive

----------
Read-out: Interleukin-8 (IL8), CXCL8 (gene 3576)
Experiment: BSK_CASM3C_IL8: BioMAP Diversity Plus: CASM3C Assay for Interleukin-8 (IL8) Biomarker Activity (AID 2283042);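 note: IL-8 protein level quantified by ELISA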
Recorded conditions: primary human coronary artery smooth muscle cells; actives raise or lower the signal
Calls of active or inactive are those of the source. The calls were made as follows: active = hit-call score of the fitted dose curve at least 0.9, where 1 is the maximum; inactive = score below 0.9.
Outcome codes: y = active, n = inactive

Molecule	Class name
CO[C@@H]1COCC[C@@H]1N[C@@H]1CC[C@@](C(=O)N2CCc3ncc(C(F)(F)F)cc3C2)(C(C)C)C1	n
CC(C)c1cccc(C(C)C)c1	n
CCc1cc(C2=C(C(=O)O)N(c3ccccc3C(F)(F)F)S(=O)(=O)c3ccccc32)cc2c1OCO2	n
CC(=O)O	n
CCCCC(CC)CO (centres undefined)	n
Nc1nc(Cl)nc2c1ncn2[C@H]1C[C@H](O)[C@@H](CO)O1	n
Cn1cnc2c1c(=O)[nH]c(=O)n2C	n
OCC(CO)n1cnc(-c2ccc(F)cc2)c1-c1ccnc(Oc2ccccc2)n1	n
CCCCCCCCCCCCCCOS(=O)(=O)O	n
NC(=Nc1ccccc1)Nc1ccccc1	n
Cc1occc(=O)c1O	n
O=NO	n
CCCC(=O)O	n
CN(C)C(=O)NC1(c2ccccc2)CCN(CCC[C@]2(c3ccc(Cl)c(Cl)c3)CCCN(C(=O)c3ccccc3)C2)CC1	n
CCCCCCCCCCCCCCCCO	n
O=C(O)CN(CC(=O)O)CC(=O)O	n
C=CCCCCCCCCCCCC	n
Cc1ccc(-c2cc(C(F)(F)F)nn2-c2ccc(S(N)(=O)=O)cc2)cc1	y
CC(=O)OCC(COC(C)=O)OC(C)=O	n
CC(C)c1cccc(C(C)C)c1NC(=O)NS(=O)(=O)c1cc(C(C)(C)O)co1	n
O=C(Oc1ccccc1)c1cccc(C(=O)Oc2ccccc2)c1	n
c1ccc2occc2c1	n
Cc1cc(Cc2ccc(N)c(C)c2)ccc1N	n
CC(=O)S[C@H](C(=O)N[C@H]1Cc2ccccc2[C@H]2CCC[C@@H](C(=O)O)N2C1=O)C(C)C	n

----------
Read-out: UDP glucuronosyltransferase (UGT1A1), UGT1A1 (gene 54658)
Experiment: LTEA_HepaRG_UGT1A1: Life Technologies and Expression Analysis (LTEA) Assay for UDP glucuronosyltransferase (UGT1A1) using HepaRG (AID 2283538)
Recorded conditions: mRNA level, 48 h; actives raise or lower the signal
Calls of active or inactive are those of the source. The calls were made as follows: active = hit-call score of the fitted dose curve at least 0.9, where 1 is the maximum; inactive = score below 0.9.
Outcome codes: active, inactive

Compound	Class name
Cc1cc(Cc2ccc(N)c(C)c2)ccc1N	active
C=CCc1ccc(OC)c(OC)c1	inactive
Nc1nc(=S)c2[nH]cnc2[nH]1	inactive
CCCC(=O)O	inactive
C/C=C/C=C/C(=O)O	active
O=C1CCCCC1	inactive
CCCCCCCCCCCCCCOS(=O)(=O)O	inactive
CC(=O)S[C@H](C(=O)N[C@H]1Cc2ccccc2[C@H]2CCC[C@@H](C(=O)O)N2C1=O)C(C)C	inactive
CC(C)(O)c1ccc(CNC(=O)c2cccnc2Oc2ccc(F)cc2)cc1	active
C#CC(O)C(CC)CCCC (centres undefined)	inactive
O=C1c2c(O)cccc2Cc2cccc(O)c21	inactive
CC1(C)C(=O)NC(=O)N1CO	inactive
COC(=O)[C@H]1[C@H]2C[C@@H]3c4[nH]c5cc(OC)ccc5c4CCN3C[C@H]2C[C@@H](OC(=O)c2cc(OC)c(OC)c(OC)c2)[C@@H]1OC	active
CC(COCC(C)OC(=O)c1ccccc1)OC(=O)c1ccccc1 (centres undefined)	inactive
